# Assay Method Text: APR_HepG2_P-H2AX_72hr: Apredica 72-hour HepG2 Assay for H2AX Phosphorylation (AID 2282916);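 further: phospho-histone H2A.x immunostain intensity per cell marking DNA damage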
# Experimental Conditions: imaging, actives raise or lower the signal
Calls of active or inactive are those of the source. How the source made its calls: active means hit-call score of the fitted dose curve at least 0.9, where 1 is the maximum; inactive means score below 0.9.
// allowed return values: active, inactive

INSERT INTO results (molecule, label_value) VALUES
  ('CC(C)(C)C(O)(CCc1ccc(Cl)cc1)Cn1cncn1 (centres undefined)', 'active'),
  ('O=Cc1ccco1', 'inactive'),
  ('O=C1CCCO1', 'inactive'),
  ('CC(O)CCO (centres undefined)', 'inactive'),
  ('Cc1cc(N=Nc2ccccc2C)ccc1N', 'inactive');

Tell me the assay call for C[C@]12C=CC3=C4CCC(=O)C=C4CC[C@H]3[C@@H]1CC[C@@H]2O please.
inactive

Assay outcome for CO[C@@H]1[C@H](OC(=O)NC(=O)CCl)CC[C@]2(CO2)[C@H]1[C@@]1(C)O[C@@H]1CC=C(C)C : what was it?
inactive

Call for entry [As]#[In] :
inactive

Any idea what this test logged for Clc1ccc(Cl)c(Cl)c1 ?
inactive

Outcome? Nc1ccc([N+](=O)[O-])cc1
inactive

// return assay outcome for CS(=O)(=O)NC(=O)c1cc(Oc2ccc(C(F)(F)F)cc2Cl)ccc1[N+](=O)[O-]
inactive

// outcome(item) with item = Cc1cccc(N)c1N
active

Test call, this molecule: CN(C)c1ccc(C(=O)c2ccc(N(C)C)cc2)cc1
active

// outcome(item) with item = Clc1ccccc1Cl
inactive

What was the test verdict on CC(C)COC(=O)c1ccccc1C(=O)OCC(C)C ?
inactive

Could you check what this test reported for Cc1ccc(N)c(N)c1 ?
inactive

Returns: the outcome recorded for [O-][Cl+]O in this assay.
inactive

Could you kindly confirm the outcome this assay logged for Nc1ccc(N=Nc2ccccc2)cc1 ?
active

Recorded test outcome, item c1ccc2c(c1)-c1cccc3cccc-2c13
active

For CCNS(=O)(=O)C(F)(F)C(F)(F)C(F)(F)C(F)(F)C(F)(F)C(F)(F)C(F)(F)C(F)(F)F , which call appears in the assay record?
active

====

# Assay Method Text: ATG_M_32_CIS: Attagene CIS-FACTORIAL HepG2 Assay for M32 Transcription Factor (Internal Marker) (AID 2282949);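 further: background control marker of the multiplexed CIS panel rather than a real target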
# Experimental Conditions: HepG2 Attagene cis-factorial M32 reporter, mRNA; actives raise or lower the signal
Activity calls are given as the source filed them. Rule for the calls: active = hit-call score of the fitted dose curve at least 0.9, where 1 is the maximum; inactive = score below 0.9.
Valid outcomes are listed here; reply with one: 1.0 = active, 0.0 = inactive

INSERT INTO measurements (compound, label_value) VALUES
  ('Brc1ccc(Oc2ccccc2)cc1', 0.0);

Which outcome was assigned to Nc1ccc([N+](=O)[O-])cc1 in this test?
0.0

Fill in: this test's call for Cc1cccc(N)c1N is ___
0.0

In this assay, the call recorded for O=C(Nc1ccccc1)c1ccccc1I was what?
0.0

Any idea what this test logged for CCN(CC)CCO ?
0.0

What call does the record list for OCCOCCO ?
0.0

Please share the test call associated with c1ccc(N=Nc2ccccc2)cc1 .
0.0

Recorded call for CC(C)COC(=O)c1ccccc1C(=O)OCC(C)C ?
0.0

Please state the recorded outcome for this compound: Clc1ccc(C(c2ccc(Cl)cc2)C(Cl)Cl)cc1
0.0

Record lookup: outcome of this test for CCNS(=O)(=O)C(F)(F)C(F)(F)C(F)(F)C(F)(F)C(F)(F)C(F)(F)C(F)(F)C(F)(F)F ?
0.0

Dear colleague, could you share the recorded outcome for O=C(O)C1C2CCC(O2)C1C(=O)O (configuration not stated) when you have a moment?
1.0

Recorded test call requested for C=CCc1ccc2c(c1)OCO2
0.0

Recorded call for O=C(Oc1ccc(Br)cc1)N1CCN2CCC1CC2 ?
0.0

# lookup: test call for Clc1ccc(Cl)c(Cl)c1
0.0

How did this test come out for CN(C)c1ccc(C(=O)c2ccc(N(C)C)cc2)cc1 ?
0.0

Which outcome did this test record for the compound ClC1=C(Cl)C2(Cl)C3C(Cl)C=CC3C1(Cl)C2(Cl)Cl (configuration not stated) ?
0.0

Outcome? CC(O)CCO (configuration not stated)
0.0

I would be grateful if you could indicate the recorded call for O=P(OCCCl)(OCCCl)OCCCl .
0.0

Would you mind telling me which call this test gave N#CC(Br)(Br)C(N)=O ?
0.0

Per the records of this test, what outcome belongs to OCCCBr ?
0.0

What outcome does the record of this test show for Oc1ccc2ccc3cccc4ccc1c2c34 ?
0.0

Please share the test call associated with CCOc1cccc(C2(N3CCN(c4ccccc4)CC3)CCC(C)CC2)c1 (configuration not stated) .
0.0
